Target Or Test System: recombinant human IL-5 (human, UniProt P05113 20-134)
Method Notes: Biacore SPR, Ab supernatant on Protein A chip
Measured Parameter: % 3A5.040 kd (%)
Provide only the numeric value, understood in %.

A selection of reference data follows.
{"columns": ["Binder", "% 3A5.040 kd / %"],
 "data": [
  ["3A5.485 (antibody, human IgG4 S228P, lambda, name in Kabat numbering, V domains shown) VH: QVQLQESGPGLVKPSQTLSLTCTVSGGSISNGGYYWSWIRQHPGKGLEWIGYIYYSGSTYYNPSLKSRVTISVDTSKNQFSLKLSSVTAADTAVYYCQSLGNWFDYWGQGTLVTVSS VL: SYVLTQPPSVSVAPGQTARITCGGNNIGSKNVYWYQQKPGQAPVLVVHDDSDRPSGIPERFSGSNSGNTATLTISRVEVGDEADYSCQVWDSSSDHVVFGGGTKLTVLG", 105],
  ["3A5.494 (antibody, human IgG4 S228P, lambda, name in Kabat numbering, V domains shown) VH: QVQLQESGPGLVKPSQTLSLTCTVSGGSISNGGYYWSWIRQHPGKGLEWIGYIYYSGSTYYNPSLKSRVTISVDTSKNQFSLKLSSVTAADTAVYYCAQLGNWFDYWGQGTLVTVSS VL: SYVLTQPPSVSVAPGQTARITCGGNNIGSKNVYWYQQKPGQAPVLVVHDDSDRPSGIPERFSGSNSGNTATLTISRVEVGDEADYSCQVWDSSSDHVVFGGGTKLTVLG", 16],
  ["3A5.491 (antibody, human IgG4 S228P, lambda, name in Kabat numbering, V domains shown) VH: QVQLQESGPGLVKPSQTLSLTCTVSGGSISNGGYYWSWIRQHPGKGLEWIGYIYYSGSTYYNPSLKSRVTISVDTSKNQFSLKLSSVTAADTAVYYCALLGNWFDYWGQGTLVTVSS VL: SYVLTQPPSVSVAPGQTARITCGGNNIGSKNVYWYQQKPGQAPVLVVHDDSDRPSGIPERFSGSNSGNTATLTISRVEVGDEADYSCQVWDSSSDHVVFGGGTKLTVLG", 13]
]}

input: Suppose we examine the binder 3A5.482 (antibody, human IgG4 S228P, lambda, name in Kabat numbering, V domains shown) VH: QVQLQESGPGLVKPSQTLSLTCTVSGGSISNGGYYWSWIRQHPGKGLEWIGYIYYSGSTYYNPSLKSRVTISVDTSKNQFSLKLSSVTAADTAVYYCLSLGNWFDYWGQGTLVTVSS VL: SYVLTQPPSVSVAPGQTARITCGGNNIGSKNVYWYQQKPGQAPVLVVHDDSDRPSGIPERFSGSNSGNTATLTISRVEVGDEADYSCQVWDSSSDHVVFGGGTKLTVLG ; what % 3A5.040 kd value has been reported?
output: 52

input: Suppose we examine the binder 3A5.492 (antibody, human IgG4 S228P, lambda, name in Kabat numbering, V domains shown) VH: QVQLQESGPGLVKPSQTLSLTCTVSGGSISNGGYYWSWIRQHPGKGLEWIGYIYYSGSTYYNPSLKSRVTISVDTSKNQFSLKLSSVTAADTAVYYCAYLGNWFDYWGQGTLVTVSS VL: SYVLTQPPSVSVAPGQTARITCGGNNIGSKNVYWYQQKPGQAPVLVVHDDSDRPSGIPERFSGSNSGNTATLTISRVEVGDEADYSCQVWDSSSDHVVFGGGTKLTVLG ; what % 3A5.040 kd value has been reported?
output: 10

input: Suppose we examine the binder 3A5.496 (antibody, human IgG4 S228P, lambda, name in Kabat numbering, V domains shown) VH: QVQLQESGPGLVKPSQTLSLTCTVSGGSISNGGYYWSWIRQHPGKGLEWIGYIYYSGSTYYNPSLKSRVTISVDTSKNQFSLKLSSVTAADTAVYYCAHLGNWFDYWGQGTLVTVSS VL: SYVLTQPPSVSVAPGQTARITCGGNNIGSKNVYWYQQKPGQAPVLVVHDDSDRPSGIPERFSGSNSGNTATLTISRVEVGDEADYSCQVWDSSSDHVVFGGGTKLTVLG ; what % 3A5.040 kd value has been reported?
output: 2

input: Suppose we examine the binder 3A5.481 (antibody, human IgG4 S228P, lambda, name in Kabat numbering, V domains shown) VH: QVQLQESGPGLVKPSQTLSLTCTVSGGSISNGGYYWSWIRQHPGKGLEWIGYIYYSGSTYYNPSLKSRVTISVDTSKNQFSLKLSSVTAADTAVYYCSSLGNWFDYWGQGTLVTVSS VL: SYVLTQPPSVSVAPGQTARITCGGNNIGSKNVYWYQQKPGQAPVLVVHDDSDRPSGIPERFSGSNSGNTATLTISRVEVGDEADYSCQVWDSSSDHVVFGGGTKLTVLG ; what % 3A5.040 kd value has been reported?
output: 112
